Data credit: paper PMC3038628

- assay: FRET assay of NBD-Toc transfer from α-TTP variants to SUVs
- Type: biochemical
- test-settings: relative to wild type
Quick reference for Rate of NBD-Toc transfer to SUV, Rate^mut/Rate^wt among some molecules

molecule	measured-value
I202D: α-TTP mutant, Ile202 to Asp (helix A10) (protein, UniProt P49638 1-278, looked up, variant I202D) Alpha-tocopherol transfer …: MAEARSQPSAGPQLNALPDHSPLLQPGLAALRRRAREAGVPLAPLPLTDSFLLRFLRARDFDLDLAWRLLKNYYKWRAECPEISADLHPRSIIGLLKAGYHGVLRSRDPTGSKVLIYRIAHWDPKVFTAYDVFRVSLITSELIVQEVETQRNGIKAIFDLEGWQFSHAFQITPSVAKKIAAVLTDSFPLKVRGIHLINEPVDFHAVFSMIKPFLTEKIKERIHMHGNNYKQSLLQHFPDILPLEYGGEEFSMEDICQEWTNFIMKSEDYLSSISESIQ	22%

# query: Rate of NBD-Toc transfer to SUV, Rate^mut/Rate^wt of entry F169A: α-TTP mutant, Phe169 to Ala (protein, UniProt P49638 1-278, looked up, variant F169A) Alpha-tocopherol transfer …: MAEARSQPSAGPQLNALPDHSPLLQPGLAALRRRAREAGVPLAPLPLTDSFLLRFLRARDFDLDLAWRLLKNYYKWRAECPEISADLHPRSIIGLLKAGYHGVLRSRDPTGSKVLIYRIAHWDPKVFTAYDVFRVSLITSELIVQEVETQRNGIKAIFDLEGWQFSHAAQITPSVAKKIAAVLTDSFPLKVRGIHLINEPVIFHAVFSMIKPFLTEKIKERIHMHGNNYKQSLLQHFPDILPLEYGGEEFSMEDICQEWTNFIMKSEDYLSSISESIQ 53%
